Reference source for all entries: ChEMBL document CHEMBL1133385

Each entry below carries its recorded clearance.
# ASSAY_NOTES: Plasma clearance was determined in rabbit at a dose of 5 mg/kg/h administered i.v.
# Type: ADME, organism-based, Oryctolagus cuniculus
# Set-up: route intravenous
# RUN_CONDITIONS: iv
Numeric answer only, unit mL/min/kg assumed.

Known clearance results, listed for orientation:
N=C(N)c1cccc(N2CCCCN(C3CCN(S(=O)(=O)Cc4ccccn4)CC3)C2=O)c1.O=C(O)C(F)(F)F.O=C(O)C(F)(F)F
132
N=C(N)c1cccc(N2CCCCN(C3CCN(S(=O)(=O)Cc4ccccc4)CC3)C2=O)c1.O=C(O)C(F)(F)F
68.3

// query clearance value for entry Cl.N=C(N)c1cccc(N2CCCCN(C3CCN(S(=O)(=O)c4cccs4)CC3)C2=O)c1 11.3

====

Each entry below lists one item and its recorded Vd value.
# ASSAY_NOTES: The compound was evaluated for volume of distribution in rabbit at a dose of 5 mg/kg/h administered i.v.
# Type: ADME, organism-based, Oryctolagus cuniculus
# Set-up: route intravenous
# RUN_CONDITIONS: in vivo, iv
// units = L/kg; emit number, no label

For orientation, consider the following solved cases.
Cl.N=C(N)c1cccc(N2CCCCN(C3CCN(S(=O)(=O)c4cccs4)CC3)C2=O)c1
1.1
N=C(N)c1cccc(N2CCCCN(C3CCN(S(=O)(=O)Cc4ccccc4)CC3)C2=O)c1.O=C(O)C(F)(F)F
0.23

// next item, Vd requested
Entry under review: N=C(N)c1cccc(N2CCCCN(C3CCN(S(=O)(=O)Cc4ccccn4)CC3)C2=O)c1.O=C(O)C(F)(F)F.O=C(O)C(F)(F)F . Reported Vd? 0.34
